src = PubChem BioAssay (NCI)

Test system: NCI-H226 lung
measurement_protocol: NCI tumour cell line growth inhibition, 48 h
Collected TGI values appear next to each entry.

Prompt line: Which TGI value is on record for COC(=O)c1c(C)c2n(c1C)C(=O)C(c1ccccc1)=C2 ?
Response line: > 100 µM

Continuing:
Prompt line: Dear colleague, I am looking for the recorded TGI of the following molecule: COc1ccc(NC(=S)Nc2ccccc2)cc1
Response line: > 100 µM

Prompt line: Sample C=CC(C)c1cccc(C=O)c1O (stereo unspecified) — what was its TGI?
Response line: > 100 µM

Prompt line: // lookup TGI for COc1ccc(OC)c2c1C=C[C@H](C1(C)SCCS1)C2C(C)=O (stereo partly specified)
Response line: 63.4 µM

Prompt line: Look up TGI: NC(=S)Nc1[nH]c(=S)nc2[nH]ccc12
Response line: > 100 µM

Prompt line: What value of TGI has been recorded for this entry: C[C@@H](CC(O)C1OC1(C)C)[C@@H]1CC[C@]2(C)C3=CCC4C(C)(C)C(O)CC[C@]4(C)C3CCC12C (stereo partly specified)
Response line: 45.3 µM
